# method_description: soluble on expression in E. coli; label from the status in PepcDB or PDB records
assay_readout: soluble on expression in E. coli

MNRPSGRAADQLRPIRITRHYTKHAEGSVLVEFGDTKVICTVSAESGVPRFLKGQGQGWLTAEYGMLPRSTGERNQREASRGKQGGRTLEIQRLIGRSLRAALDLSKLGENTLYIDCDVIQADGGTRTASITGATVALIDALAVLKKRGALKGNPLKQMVAAVSVGIYQGVPVLDLDYLEDSAAETDLNVVMTDAGGFIEVQGTAEGAPFRPAELNAMLELAQQGMQELFELQRAALAE : soluble
AEVLLGSSDGGLAFVPSDLSIASGEKITFKNNAGFPHNDLFDKKEVPAGVDVTKISMPEEDLLNAPGEEYSVTLTEKGTYKFYCAPHAGAGMVGKVTVN : soluble
REIADNTYIVLGTMTLNDFNEYFETDLESDNVDTIAGFYLTGVGTIPSQEEKEHFEVESNGKHLELINDKVKDGRVTKLKILVSE : soluble
MITISNEDNMILMSRYPDKYFDLAIVDPPYGILNKTKRGGDYKFNMNEYSQWDIKPDQTYFNELFRVSKNQIIWGGNYFGELWLRSEYNKGFIIWDKNQPETLNNFSMAEMAWSSFDRPSKIFRFSVRKNRNKTHPTQKPVELYQWLLKMYAKQGDKILDTHLGSGTLAIACCIAQFDLTACEINSDYYQQSIEKIKNNLPEARISFGHPGYCIIE : not soluble
GTEDTVIKVSVLRGPSVIAFADWLENPPIIDNKKVQVKVVDSPDLAQALLIKQETDIAVLPMINAANLYNKGIKIKLAGCPIWGTLYLVEKTPLKEPALYVFGNGTTPDILTRYYLGRQRLDYPLNYAFNTAGEITQGILAGKVNRAVLGEPFLSIALRKDSSLRITADLNHLTDNDTLGFAQTAVVYTPTMEKYRIAFEDALRASCQKAVRYPKETIHSLEEHGIFAQGALTPKSIERCKIYYLSAIEAKDAVMGFLRLIEQYEPKAVGGRLPDAGFIPEKQ : soluble
MGSDKIHHHHHHMRRRVPLNSVRAFEAAARRMSLVQASDELCVTPTAVSHQIRQLEDFLQTKLFLRRSSRLELTPESRACLAKLTEALDIIDDAIAALHKPMDMPERLVVGASASVGSLWLMPRLRNFYRTAPEIDISLTTFIERSAIETDTSDVWICNWHTNLDRRVELLLEEDIIPVCSPQMAEEFGELSFDSLRELPLVHVDRAKASINGQYPDWDRYLREYGISRNDIAKGPRFNQAGPAIEAAKAGMGALLGRSILIERALETGELIRLGDPYPIRNPYYLISPLQPASNAVKMFKDWIFAQAKTRTSTYVELPHKNRRGSDFRLTV : not soluble
MSLKRISIKDVALKAGVSIASVSYVLNNKIDSRIPQETIDKVKHAAEELNYRPNNIAKSLKTQRTHIIGLVVADIANPYFSQLARIIEDEANKLGYTLMIGSSDENAEKFEALINMFADRQADGLIIAPVENSEKCLLKLQKQKIPFVLIDRYLSGVEADSIQINNYDISQKVTEHLINGGYKNTLLVAYKTQLQHLLQRTQAFLNTLEKHQIQNSQVLLADKDYIDRDINTGLENMLQNAVKPDAIFFTSNKLAVSGLKKLTQLGINIPQDIAVAAFDETEAYELFPVPLTYVKQPLSAIGTTAVKMLNEKINIKNLPLQNVTLHAELHIGQSTKSKEGHHHHHH : soluble
MSLIHIAIAEDDFRVAQIHERLIKQLDGFKIIGKAANAKETLALLKEHKADLLLLDIYMPDELGTALIPDIRSRFPEVDIMIITAATETRHLQEALRAGIAHYLIKPVTADKFRQVLLQYKEKRKLLMSQPEVSQSMIDHIFGNGVKTALPAEDLPTGINSITLRKIKEALQTASEGLTAEELGEKMGASRTTARRYAEYLVSKEEARAELEYGIIGRPERKYYLAADEGHHHHHH : soluble
MNQYQKTTERKKQAIIQAALHLFKEKGFKGTSIKSIAKAAQVSPVSIYNYFESKESLVDLCVNKLFEEITQEAENILTSEIDFKMKLCQALALCQKKMSHQISVYFKEKTIKDPTFSKLLTKAIVAKKREIYRSYIKLGKDEGVIAKDLSTELILNVMDALNSIGNQLSESENLGEEIEQIHRLFLYGIFGKI : not soluble
MGSDKIHHHHHHMNRAREINYLNSIALHQPFGIVGVSGETGIGKTTVLNFVNPEGVFTVRVNISLRDSMESILYDLLHSLALSLEKVEEVSDLAKEVRKWITDEVSTIKGFSLGVSFGVNASLTHEKSIRPRFNFFKAREKLGELIKQTVQRKGKFLLIIDELDKEKKEDVLRVIDSIKNFIIMEDFVVILSLPFSIYREYAADRLRWNEAGNLENIFTDIVFVEPLKKLEIKELIIKRLGSYIELIEDGVLDIVADFSDGNPRDGLWILTKAIYDNIHKELLSKEDLINTINRTISEYTGLTLNLTENQKKAIRVLRGSVYSREKIIETLQKEGFKRTTAYSVMDQLLQKRILLVEKEGYRISGKFSYMEI : not soluble

// Input: "MSLRKTVAFGFVGTVLDYAGRGSQRWSKWRPSLCICQQESLVIDRLELLHDARSRSLFETLKRDIASVSPETEVVSVEIELHNPWDFEEVYACLHDFARGYEFQPEKEDYLIHITTGTHVAQICWFLLAEARYLPARLIQSSPPRKKEQPRGAGEVTIIDLDLSLYNAIASRFAEERQQTLDEGHHHHHH" . Output its soluble on expression in E. coli only.
soluble

// Input: "MGSDKIHHHHHHMSIIFDKNLGILEKTIEEIQNEKKHILRTKYGINIKDNSIYDIINFPSSSIDKQISEVLKELFSKIKENGSYFNALKEDLSTPKSSTYEAIRKALLNVEGVKHINILSGPGTINLYLILQDDCFQDQEKKQIKIETKQNIWQAIYYTAPSGTVFKGDIEIEFLNKHNQKKTYKFSLGKKKYAYLKVVYKTEAKDAIYKEIDTQIRDIYNKILTDKYIEMGTSLRYQDFLAPVSIIRGIKELKIGICIKNDETKKITQLSDSDFTFNKDENTKEDEIIIFNTNKRLLINRE" . Output its soluble on expression in E. coli only.
not soluble

* * *

# method_description: soluble on expression in E. coli; label from the status in PepcDB or PDB records
assay_readout: soluble on expression in E. coli

MGSDKIHHHHHHMKVFSERADKPHAYLFGEYTNPLGFDPVELALSEDGQAWQSIFDDPNLSNVYLVDFDWLPPVIADTYRTAGTRDGQQLANSRLDQRDIVLKFIAYCRGDADEKLTFQSLSNFLIRRHNYWVAFDNDGSRMYHVREKTITAEYYGDKMMMITVTLNNFTGVAQSIMPSAHINEMPNIGLGLPTDIVNYVFRTSEFDVNNIGELPVDPLVQGDYFDITLTGIGSPTIANTTTGDAITCTKSLTTGDTFKLIGVNPQINGQAAGINTDNGIIRLASGNNHFKITGCQDLNCTVNFYFKYLN : not soluble
MGHIIDISKWNGDINWSIAKQHIDFIIARVQDGSNYVDPLYKGYVQAMKQHGIPFGNYAFCRFVSIADAKKEAQDFWNRGDKSATVWVADVEVKTMNDMRAGTQAFIDELYRLGAKKVGLYVGHHMYTPFGMANVKSDFVWIPRYGGNKPAYPCDIWQYTETGNVPGIGKCDLNSLIGNKSLSWFTESATQESVQAPTQNIIQSGAFSPYETPDVTGALTSLKMTAKFILKPDGLTYFISDPTSDAQLNAMKEYLDRKGWWYEVK : not soluble

* * *

# method_description: soluble on expression in E. coli; label from the status in PepcDB or PDB records
assay_readout: soluble on expression in E. coli

MGSDKIHHHHHHMQFEMHDHVKGKAMSYPVTSQPQCANTCYQTQLSDWHTGLTDCCNDMPVCLCGTFAPLCLACRISDDFGECCCAPYLPGGLHSLRTGMRERYHIQGSVGHDWAALTFCLPCALCQMARELKIRE : not soluble
MGSDKIHHHHHHMLDFNHQPSIAERINALIDSGLIADRDATPPRAYLGGSRLGHSCERALQFEFAGAPKDSGADFNGQTLRIFAIGHALEDVAIRWLRRAGFDIYTRKGNRPDGEQFGFSVAGGQVRGHVDGILADGPVIPGMGYPALWECKTMNAKNWRETVAKGVTVSKPVYAAQIALYQAYMEGTVPGISANPALFTAINKDTAELHHELVSFDGELAQRISDRAVRILQATDAGELLPRMSSDPDYFECRFCPWKTRCWA : not soluble
MIQERKNLVTFGDQLVEAGRRLGRLCVGIDPHPSLLKQWGCDDGIAGLQRFTEICVEAFSGNVALVKPQVAFYEAWGAAGYQILESAISELRQAGTLVLSDAKRGDIGSTMAGYAQAWLAEESSLSSDAVTVSPFLGYGSLSPVLEVAASTNKGVFVLAATSNPEARSLQDRIGEDGLSISQLMVDSVALSNREHKENNHYGNVGVVIGATLAHPPQLERLNGPILLPGVGAQGATPADVARLTQGVQELAFANVSRGILKAGPSASALSTAISKFVEEFTN : not soluble

These measurements were taken from the DeepSol protein solubility set.
